Origin of values: patent US7273885B2

target.of.assay: HCV NS3-NS4A protease (tNS3 with KK4A) (Hepatitis C virus genotype 1a)
Sequence (P27958 1027-1208): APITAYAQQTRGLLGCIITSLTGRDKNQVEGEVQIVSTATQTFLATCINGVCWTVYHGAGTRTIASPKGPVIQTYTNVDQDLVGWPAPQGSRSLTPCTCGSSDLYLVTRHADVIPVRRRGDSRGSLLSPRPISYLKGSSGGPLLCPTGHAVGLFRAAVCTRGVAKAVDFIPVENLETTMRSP
experimental.protocol: HCV Ki assay (HPLC microbore separation of 5AB substrate and products)
Format: biochemical
Protocol: HPLC Microbore Method for Separation of 5AB Substrate and Products • Substrate: • NH2-Glu-Asp-Val-Val-(alpha)Abu-Cys-Ser-Met-Ser-Tyr-COOH A stock solution of 20 mM 5AB (or concentration of your choice) was made in DMSO w/ 0.2M DTT. This was stored in aliquots at −20 C. Buffer: 50 mM HEPES, pH 7.8; 20% glycerol; 100 mM NaCl Total assay volume was 100 μL The buffer, KK4A, DTT, and tNS3 were combined; distributed 78 μL each into wells of 96 well plate. This was incubated at 30 C for ˜5–10 min. […]
*1 amine or outer side, *2 acyl side, *3 side chain or, on linkers, in order; H or OH if unused. Where a SMILES comes first, the peptide text is derived from it. [ ]: non-standard residue; d: D form. The star is where a group is joined. Oic = O=C(O)[C@@H]1C[C@@H]2CCCC[C@@H]2N1; NH(1S-phenylethyl) = C[C@H](N*)c1ccccc1; Isopropoxycarbonyl = CC(C)OC(=O)*; X1 = CCCC(N[*:1])C(=O)C(=O)[*:2]; Chg = N[C@H](C(=O)O)C1CCCCC1; Tle = CC(C)(C)[C@H](N)C(=O)O; Dap = NC[C@H](N)C(=O)O; NHcPr = C1CC1N*; Moc = COC(=O)*
endpoint: Ki

| compound | Ki |
| --- | --- |
| CCC[C@H](NC(=O)[C@@H]1C[C@@H]2CCCC[C@@H]2N1C(=O)[C@@H](NC(=O)[C@@H](NC(=O)c1[nH]c(C)c(C)c1C(C)=O)C1CCCCC1)C(C)(C)C)C(=O)C(=O)C(C)C [Compound 62a] | 500 to 1000 nM |

Look at each compound and report its Ki.
1. CCC[C@H](NC(=O)[C@@H]1[C@@H](C2CCCCC2)CCN1C(=O)[C@@H](NC(=O)[C@@H](NC(=O)c1[nH]c(C)c(C)c1C(C)=O)C1CCCCC1)C(C)(C)C)C(=O)C(=O)NC1CC1 [Compound 63]
2. CC(=O)c1c(C(=O)N[C@H](C(=O)N[C@H](C(=O)N2[C@H](C(=O)N[C@@H](CC(F)F)C(=O)C(=O)NC3CC3)C[C@@H]3CCCC[C@@H]32)C(C)(C)C)C2CCCCC2)[nH]c(C)c1C [Compound 61a]
3. CCC[C@@H](NC(=O)[C@@H]1C[C@@H]2CCCC[C@@H]2N1C(=O)[C@@H](NC(=O)[C@@H](NC(=O)c1cnccn1)C1CCCCC1)C(C)(C)C)C(=O)C(=O)NC1CC1 [Compound 60a]
4. CCCC(NC(=O)[C@@H]1C[C@@H]2CCCC[C@@H]2N1C(=O)[C@@H](NC(=O)[C@@H](NC(=O)[C@H](C)NC(=O)OC(C)C)C1CCCCC1)C(C)C)C(=O)C(=O)NC1CC1 (stereo partly shown) [Compound 5a] (Isopropoxycarbonyl-A[Chg]V[Oic][X1]-NHcPr)
5. CC(=O)c1c(C(=O)N[C@H](C(=O)N[C@H](C(=O)N2[C@H](C(=O)NC(CCC(F)(F)F)C(=O)C(=O)NC3CC3)C[C@@H]3CCCC[C@@H]32)C(C)(C)C)C2CCCCC2)[nH]c(C)c1C (stereo partly shown) [Compound 45a]
6. CCC[C@H](NC(=O)[C@@H]1C[C@@H]2CCCC[C@@H]2N1C(=O)[C@@H](NC(=O)[C@@H](NC(=O)c1[nH]c(C)c(C)c1C(C)=O)C1CCCCC1)C(C)(C)C)C(=O)C(=O)NC1CC1 [Compound 25a]

1. < 500 nM
2. < 500 nM
3. 1000 to 5000 nM
4. < 500 nM
5. < 500 nM
6. < 500 nM

Look at each compound and report its Ki.
1. CCCC(NC(=O)[C@@H]1C[C@@H]2CCCC[C@@H]2N1C(=O)[C@@H](NC(=O)[C@@H](NC(=O)[C@H](CNC(=O)OC)NC(=O)OC)C1CCCCC1)C(C)(C)C)C(=O)C(=O)N[C@@H](C)c1ccccc1 (stereo partly drawn) [Compound 9a] (Moc-[Dap](Moc)[Chg][Tle][Oic][X1]-{NH(1S-phenylethyl)})
2. CCC[C@H](NC(=O)[C@@H]1[C@@H](C(C)C)CCN1C(=O)[C@@H](NC(=O)[C@@H](NC(=O)c1[nH]c(C)c(C)c1C(C)=O)C1CCCCC1)C(C)(C)C)C(=O)C(=O)NC1CC1 [Compound 64]
3. CCC[C@H](NC(=O)[C@@H]1C[C@@H]2CCCC[C@@H]2N1C(=O)[C@@H](NC(=O)[C@@H](NC(=O)c1[nH]c(C)c(C(C)=O)c1C#N)C1CCCCC1)C(C)(C)C)C(=O)C(=O)NC1CC1 [Compound 52a]

1. < 500 nM
2. < 500 nM
3. < 500 nM
